# reported IC50; entries follow
# System: OCI-AML-2 (MLL-AF9) cells
# measurement.description: Cell proliferation (alamarBlue) OCI-AML-2
# Assay type: cell-based
# test.settings: Homo sapiens, OCI-AML2, OCI-AML-2 (MLL-AF9), D4; read-out: IC50 proliferation
quantity.measured: IC50

COc1cc(F)ccc1-c1cc(Nc2cc(CS(C)(=N)=O)ccn2)ncc1F (centres unmarked) | 110 nM
CC(C)N(C[C@H]1O[C@@H](n2cnc3c(N)ncnc32)[C@H](O)[C@@H]1O)[C@H]1C[C@@H](CCc2nc3cc(C(C)(C)C)ccc3[nH]2)C1 | > 10000 nM

====

# Tested on: MOLM-13 (MLL-AF9) cells
# measurement.description: Cell proliferation (alamarBlue) MOLM-13
# Assay type: cell-based
# test.settings: Homo sapiens, MOLM-13, MOLM-13 (MLL-AF9), D1; read-out: IC50 proliferation
# Protocol: Cells were seeded in the optimal growth medium at 4000–5000 cells/well in a 96 MTP and cultured 18–24 h before inhibitor treatment.
pIC50: −log10 of the molar value.
quantity.measured: pIC50

CC(C)N(C[C@H]1O[C@@H](n2cnc3c(N)ncnc32)[C@H](O)[C@@H]1O)[C@H]1C[C@@H](CCc2nc3cc(C(C)(C)C)ccc3[nH]2)C1 | < 5.00
COc1cc(F)ccc1-c1cc(Nc2cc(CS(C)(=N)=O)ccn2)ncc1F (stereo not drawn) | 7.15
Cc1sc2c(c1C)C(c1ccc(Cl)cc1)=N[C@@H](CC(=O)Nc1ccc(O)cc1)c1nnc(C)n1-2 | < 5.00

====

# reported IC50; entries follow
# Test system: NOMO-1 (MLL-AF9) cells
# measurement.description: Cell proliferation (alamarBlue) NOMO-1
# Format: cell-based
# test.settings: Homo sapiens, NOMO-1, NOMO-1 (MLL-AF9), D1; read-out: IC50 proliferation
quantity.measured: IC50

COc1cc(F)ccc1-c1cc(Nc2cc(CS(C)(=N)=O)ccn2)ncc1F (stereo not drawn) | 0.24 µM
CC(C)N(C[C@H]1O[C@@H](n2cnc3c(N)ncnc32)[C@H](O)[C@@H]1O)[C@H]1C[C@@H](CCc2nc3cc(C(C)(C)C)ccc3[nH]2)C1 | > 10 µM
Cc1sc2c(c1C)C(c1ccc(Cl)cc1)=N[C@@H](CC(=O)Nc1ccc(O)cc1)c1nnc(C)n1-2 | > 10 µM

====

# Test system: NOMO-1 (MLL-AF9) cells
# measurement.description: Cell proliferation (alamarBlue) NOMO-1
# Type: cell-based
# test.settings: Homo sapiens, NOMO-1, read-out: IC50 proliferation, NOMO-1 (MLL-AF9), D7
pIC50: −log10 of the molar value.
# reported pIC50; entries follow
quantity.measured: pIC50

Cc1c(-c2ccc(-c3ccccc3F)cc2)nc2ccc(F)cc2c1C(=O)O [Brequinar] | 6.89
Cc1c(CN2CCC3(CC2)CN(c2ncnc4sc(CC(F)(F)F)cc24)C3)ccc2c1cc(C#N)n2CC(N)=O [BAY-155] | 7.15

====

# Tested on: SEM (MLL-AF4) cells
# measurement.description: Cell proliferation (alamarBlue) SEM
# Assay type: cell-based
# test.settings: SEM (MLL-AF4), D1; read-out: IC50 proliferation
quantity.measured: IC50

CC(C)N(C[C@H]1O[C@@H](n2cnc3c(N)ncnc32)[C@H](O)[C@@H]1O)[C@H]1C[C@@H](CCc2nc3cc(C(C)(C)C)ccc3[nH]2)C1 | > 10 µM
COc1cc(F)ccc1-c1cc(Nc2cc(CS(C)(=N)=O)ccn2)ncc1F (stereo not drawn) | 0.26 µM
Cc1sc2c(c1C)C(c1ccc(Cl)cc1)=N[C@@H](CC(=O)Nc1ccc(O)cc1)c1nnc(C)n1-2 | > 10 µM

====

# System: MV4-11 (MLL-AF4) cells
# measurement.description: Cell proliferation (alamarBlue) MV4-11
# Type: cell-based
# test.settings: Homo sapiens, MV4-11, read-out: IC50 proliferation, MV4-11 (MLL-AF4), D7
pIC50: −log10 of the molar value.
quantity.measured: pIC50

Cc1c(-c2ccc(-c3ccccc3F)cc2)nc2ccc(F)cc2c1C(=O)O [Brequinar] | 6.66
Cc1c(CN2CCC3(CC2)CN(c2ncnc4sc(CC(F)(F)F)cc24)C3)ccc2c1cc(C#N)n2CC(N)=O [BAY-155] | 7.52

====

# System: MV4-11 (MLL-AF4) cells
# measurement.description: Cell proliferation (alamarBlue) MV4-11
# Assay type: cell-based
# test.settings: Homo sapiens, MV4-11, read-out: IC50 proliferation, MV4-11 (MLL-AF4), D1
pIC50: −log10 of the molar value.
quantity.measured: pIC50

Cc1c(CN2CCC3(CC2)CN(c2ncnc4sc(CC(F)(F)F)cc24)C3)ccc2c1cc(C#N)n2CC(N)=O | < 5.00
Cc1c(-c2ccc(-c3ccccc3F)cc2)nc2ccc(F)cc2c1C(=O)O | < 5.00

====

# System: Jurkat (MLL-WT) cells
# measurement.description: Cell proliferation (alamarBlue) Jurkat
# Format: cell-based
# test.settings: Homo sapiens, Jurkat (MLL-WT), D1, read-out: IC50 proliferation
pIC50: −log10 of the molar value.
quantity.measured: pIC50

Cc1sc2c(c1C)C(c1ccc(Cl)cc1)=N[C@@H](CC(=O)Nc1ccc(O)cc1)c1nnc(C)n1-2 | < 5.00
COc1cc(F)ccc1-c1cc(Nc2cc(CS(C)(=N)=O)ccn2)ncc1F (stereo not drawn) | 6.85
CC(C)N(C[C@H]1O[C@@H](n2cnc3c(N)ncnc32)[C@H](O)[C@@H]1O)[C@H]1C[C@@H](CCc2nc3cc(C(C)(C)C)ccc3[nH]2)C1 | < 5.00

====

# Test system: OCI-AML-5 (MLL-WT) cells
# measurement.description: Cell proliferation (alamarBlue) OCI-AML-5
# Type: cell-based
# test.settings: Homo sapiens, OCI-AML-5, read-out: IC50 proliferation, OCI-AML-5 (MLL-WT), D4
# Experimental: Cells were seeded in the optimal growth medium at 4000–5000 cells/well in a 96 MTP and cultured 18–24 h before inhibitor treatment.
quantity.measured: IC50

Cc1c(CN2CCC3(CC2)CN(c2ncnc4sc(CC(F)(F)F)cc24)C3)ccc2c1cc(C#N)n2CC(N)=O | > 10 µM
Cc1c(-c2ccc(-c3ccccc3F)cc2)nc2ccc(F)cc2c1C(=O)O | > 10 µM

====

# reported IC50; entries follow
# Tested on: OCI-AML-3 (MLL-WT) cells
# measurement.description: Cell proliferation (alamarBlue) OCI-AML-3
# Format: cell-based
# test.settings: Homo sapiens, OCI-AML-3, OCI-AML-3 (MLL-WT), D1; read-out: IC50 proliferation
quantity.measured: IC50

Cc1sc2c(c1C)C(c1ccc(Cl)cc1)=N[C@@H](CC(=O)Nc1ccc(O)cc1)c1nnc(C)n1-2 [OTX015] | > 10 µM
CC(C)N(C[C@H]1O[C@@H](n2cnc3c(N)ncnc32)[C@H](O)[C@@H]1O)[C@H]1C[C@@H](CCc2nc3cc(C(C)(C)C)ccc3[nH]2)C1 [EPZ-5676] | > 10 µM
COc1cc(F)ccc1-c1cc(Nc2cc(CS(C)(=N)=O)ccn2)ncc1F (stereo not drawn) [BAY 1251152] | 0.09 µM

====

# Tested on: OCI-AML-2 (MLL-AF9) cells
# measurement.description: Cell proliferation (alamarBlue) OCI-AML-2
# Assay type: cell-based
# test.settings: Homo sapiens, OCI-AML2, read-out: IC50 proliferation, OCI-AML-2 (MLL-AF9), D7
quantity.measured: IC50 (µM)

Cc1c(CN2CCC3(CC2)CN(c2ncnc4sc(CC(F)(F)F)cc24)C3)ccc2c1cc(C#N)n2CC(N)=O | 9.15

====

# System: MOLM-14 (MLL-AF9) cells
# measurement.description: Cell proliferation (alamarBlue) MOLM-14
# Type: cell-based
# test.settings: Homo sapiens, MOLM-14, read-out: IC50 proliferation, MOLM-14 (MLL-AF9), D4
# Protocol: Cells were seeded in the optimal growth medium at 4000–5000 cells/well in a 96 MTP and cultured 18–24 h before inhibitor treatment.
quantity.measured: IC50

Cc1c(-c2ccc(-c3ccccc3F)cc2)nc2ccc(F)cc2c1C(=O)O [Brequinar] | 320 nM
Cc1c(CN2CCC3(CC2)CN(c2ncnc4sc(CC(F)(F)F)cc24)C3)ccc2c1cc(C#N)n2CC(N)=O [BAY-155] | 310 nM
